# Target Entity: human insulin-like growth factor-I (IGF-I) (human, UniProt P05019 49-118)
# Experimental Protocol: cell-based or functional assay
Measured Parameter: EC50 (nM), mean (n = 3), IGF-I Proliferation Assay, NIH3T3/hIGF-IR cells
The figure you give is taken to be in nM; do not add the unit.

[in] Return the recorded EC50 (nM), mean (n = 3), IGF-I Proliferation Assay, NIH3T3/hIGF-IR cells value; entry: mAb 7.234.2 (antibody, V domains shown, Kappa light chain (L5/JK3); also called 7.234.1; 7_234_1) VH: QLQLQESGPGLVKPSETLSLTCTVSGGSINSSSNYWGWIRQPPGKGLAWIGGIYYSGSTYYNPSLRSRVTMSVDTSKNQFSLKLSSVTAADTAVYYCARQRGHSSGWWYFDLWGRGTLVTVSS VL: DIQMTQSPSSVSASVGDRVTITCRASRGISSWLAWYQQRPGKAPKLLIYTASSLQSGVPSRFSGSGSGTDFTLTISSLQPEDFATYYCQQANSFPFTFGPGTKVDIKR
[out] 40.6
